Value source: PubChem BioAssay AID1845215

test system: SW 1271 complex tumor spheroid viability; assay: Anticancer human tumor SW 1271 cell line growth inhibition; conditions: second compound 0.003 µM; first compound 0.949 µM; active compounds read low;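 note: spheroids exposed to agents for seven days before readout; percent of DMSO vehicle control luminescence so 100% = vehicle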
Documented viability, T/C across a set of molecules
Report only the number, with the unit % understood.

• O=C(c1cc(Cc2n[nH]c(=O)c3ccccc23)ccc1F)N1CCN(C(=O)C2CC2)CC1 + COc1cc2c(cc1O)CCNC21CSC2c3c(OC(C)=O)c(C)c4c(c3C(COC1=O)N1C(O)C3Cc5cc(C)c(OC)c(O)c5C(C21)N3C)OCO4 = 0.12
• Cc1sc2c(c1C)C(c1ccc(Cl)cc1)=NC(CC(=O)Nc1ccc(O)cc1)c1nnc(C)n1-2 (stereo not drawn) + COc1cc2c(cc1O)CCNC21CSC2c3c(OC(C)=O)c(C)c4c(c3C(COC1=O)N1C(O)C3Cc5cc(C)c(OC)c(O)c5C(C21)N3C)OCO4 = 0.09
• O=C(c1cc(Cc2n[nH]c(=O)c3ccccc23)ccc1F)N1CCN(C(=O)C2CC2)CC1 + CC[C@@]1(O)C(=O)OCc2c1cc1n(c2=O)Cc2cc3c(CN(C)C)c(O)ccc3nc2-1 = 40.8

In: Given CNCc1ccc(-c2cc(-c3nc(-c4ccc(S(=O)(=O)C(C)C)cc4)cnc3N)on2)cc1 + CC[C@@]1(O)C(=O)OCc2c1cc1n(c2=O)Cc2cc3c(CN(C)C)c(O)ccc3nc2-1 , state its recorded viability, T/C.
Out: 5.87

In: Follow-up item: Cn1ncnc1[C@H]1c2n[nH]c(=O)c3cc(F)cc(c23)N[C@@H]1c1ccc(F)cc1 + COc1cc2c(cc1O)CCNC21CSC2c3c(OC(C)=O)c(C)c4c(c3C(COC1=O)N1C(O)C3Cc5cc(C)c(OC)c(O)c5C(C21)N3C)OCO4
Out: 0.09

In: Follow-up item: Cn1ncnc1[C@H]1c2n[nH]c(=O)c3cc(F)cc(c23)N[C@@H]1c1ccc(F)cc1 + CC[C@@]1(O)C(=O)OCc2c1cc1n(c2=O)Cc2cc3c(CN(C)C)c(O)ccc3nc2-1
Out: 23.4

In: Follow-up item: Cc1sc2c(c1C)C(c1ccc(Cl)cc1)=NC(CC(=O)Nc1ccc(O)cc1)c1nnc(C)n1-2 (stereo not drawn) + CC[C@@]1(O)C(=O)OCc2c1cc1n(c2=O)Cc2cc3c(CN(C)C)c(O)ccc3nc2-1
Out: 1.06

In: Follow-up item: CNCc1ccc(-c2cc(-c3nc(-c4ccc(S(=O)(=O)C(C)C)cc4)cnc3N)on2)cc1 + COc1cc2c(cc1O)CCNC21CSC2c3c(OC(C)=O)c(C)c4c(c3C(COC1=O)N1C(O)C3Cc5cc(C)c(OC)c(O)c5C(C21)N3C)OCO4
Out: 0.1

----------
test system: SW 1271 complex tumor spheroid viability; test: Anticancer human tumor SW 1271 cell line growth inhibition; conditions: second compound 0.03 µM; first compound 1 µM; active = viability on the fitted dose curve at most 10% of control; inactive = the rest;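 note: spheroids exposed to agents for seven days before readout; percent of DMSO vehicle control luminescence so 100% = vehicle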
Your response should consist of one outcome taken from active, inactive

• COc1cc(C)[nH]c(=O)c1CN1CCc2c(Cl)cc(C(OC)C3COC3)c(Cl)c2C1=O (stereo unspecified) + CC[C@@]1(O)C(=O)OCc2c1cc1n(c2=O)Cc2cc3c(CN(C)C)c(O)ccc3nc2-1 = inactive
• CC(C)n1c(=O)n(C)c2cnc3cc(F)c(-c4ccc(OCCCN5CCCCC5)nc4)cc3c21 + CC[C@@]1(O)C(=O)OCc2c1cc1n(c2=O)Cc2cc3c(CN(C)C)c(O)ccc3nc2-1 = inactive

In: Outcome logged for COc1ccc([C@@H](O)c2cc(-c3ncnc4cc(N5CCOCC5)ccc34)c(F)cc2Cl)nn1 + CC[C@@]1(O)C(=O)OCc2c1cc1n(c2=O)Cc2cc3c(CN(C)C)c(O)ccc3nc2-1 in this assay:
Out: inactive

In: Follow-up item: CC1COCCN1c1cc(-c2ccnn2C)c2ccnc(-c3ccn[nH]3)c2n1 (stereo unspecified) + CC[C@@]1(O)C(=O)OCc2c1cc1n(c2=O)Cc2cc3c(CN(C)C)c(O)ccc3nc2-1
Out: active

In: Follow-up item: Cc1cc(C)c(CNC(=O)c2cc(-c3ccc(CN4CCOCC4)cc3)cc3c2cnn3C2CCCC2)c(=O)[nH]1 + CC[C@@]1(O)C(=O)OCc2c1cc1n(c2=O)Cc2cc3c(CN(C)C)c(O)ccc3nc2-1
Out: inactive

In: Follow-up item: [2H]c1nc(C)nc([2H])c1-c1cc(NC[C@@H](C)c2cccc3c(C(=O)NC)ccnc23)ncn1 + CC[C@@]1(O)C(=O)OCc2c1cc1n(c2=O)Cc2cc3c(CN(C)C)c(O)ccc3nc2-1
Out: inactive
